tested on: HS 578T breast; test: NCI tumour cell line growth inhibition, 48 h; in the data active means GI50 below about 0.43 µM; inactive means the rest
Pick from Y for active, N for inactive when you respond.

How did this test come out for Fc1[nH]nc2ccc([C@@H]3Nc4ccc5[nH]ncc5c4[C@H]4C5CCC(C5)[C@@H]34)cc12 (stereo not given in full) ? N

In this assay, the call recorded for COC(=O)/C=C1\S/C(=N\NC(=O)c2cc3ccc2/C=C\c2ccc(cc2)/C=C\3)N(c2ccccc2)C1=O was what? N

Field: outcome | Entry: Nc1nc(-n2c(-c3ccccc3)nc3c(Br)cc(Br)cc3c2=O)nnc1-c1cccc(Cl)c1Cl N

Call for entry CCN1CCN(Cc2ccc(NC(=O)c3cccc(C#Cc4cccc5[nH]nc(N)c45)c3)cc2C(F)(F)F)CC1 : N

Tell me the assay call for COC1/C=C/OC2(C)Oc3c(C)c(O)c4c(O)c(c(/C=N/Nc5ccc([N+](=O)[O-])cc5[N+](=O)[O-])c(O)c4c3C2=O)NC(=O)C(C)=C/C=C/C(C)C(O)C(C)C(O)C(C)C(OC(C)=O)C1C (stereo not given) please. N

Could you check what this test reported for O=C(Nc1ccc(F)cc1)Nc1ccc(Cl)c([N+](=O)[O-])c1 ? N

Name the outcome recorded for OCCN(CCO)c1ncnc2c1ncn2Cc1ccc(CCl)cc1 in the assay. N

Please let me know the test result on file for CCC(=O)[C@H](C)[C@@H](OC(=O)[C@H](C)CC)[C@H](C)[C@H]1OC(CC)=C(C)C(=O)[C@@H]1C . N

What call does the record list for Nc1ccccc1C#C/C=C\C#Cc1ccccc1OC(F)(F)F ? N

Write down the call the test reported for this compound. Item: Nc1c(C(=O)c2cccc(CCS(N)(=O)=O)c2)cnn1-c1ccc(F)cc1 N

Hello, I am checking results. What call was entered for COc1cc(/C=N\NC(=O)CN2CCN(c3cc4c(cc3F)c(=O)c(C(=O)N/N=C/c3cc(OC)c(OC)c(OC)c3)cn4C3CC3)CC2)cc(OC)c1OC ? Y

Call for entry Cc1ccc(CN2CCC(C(=O)Nc3ccc(-c4cc5ccccc5[nH]4)cc3)CC2)o1 : N

Field: outcome | Entry: O=C(Nc1ccc(-n2ccc3c(NC(=O)c4ccccc4)nccc32)cc1)c1ccc(Cl)c(C(F)(F)F)c1 N

Assay outcome for Cc1cc(-c2nc(C(=O)Nc3cc4oc(N5CCOCC5)nc4nc3N3CC[C@@H](O)C3)co2)ccn1 : what was it? N

Which result was noted for this compound in the test: Cc1ccc2c(C)c3c(ccc4ccccc43)c[n+]2c1 N

* * *

For each entry below, report its TGI value.
tested on: NCI/ADR-RES ovarian; test: NCI tumour cell line growth inhibition, 48 h

Any idea what TGI was measured for Cc1ccc2c(C)c3c(ccc4ccccc43)c[n+]2c1 ? > 100 µM

Value lookup for TGI; key = CCOC(=O)Cn1c(C(F)(F)F)nc2nc(Cl)c(Cl)nc21 > 100 µM

# input compound: Cc1ccc(Cl)c2c(N=Nc3ccccc3[N+](=O)[O-])c(O)[nH]c12 ; wanted: its TGI > 100 µM

For the compound NC(=O)NCCCC(NC(=O)OCCCCn1ccc(=O)[nH]c1=O)C(=O)O (configuration not stated) , what TGI is on record? > 100 µM

Which TGI is listed for CN1CCCCC1CCN1c2ccccc2Sc2ccc(Cl)cc21 (configuration not stated) ? 7.62 µM

For the compound O=[N+]([O-])c1ccc2c(c1)c(OCc1ccccc1)nn2Cc1ccccc1 , what TGI is on record? > 100 µM

Item N#Cc1c(-c2ccccc2)/c(=C\Nc2cccc(C(F)(F)F)c2)c(=O)n2c1nc1ccccc12 has what recorded TGI? 80.4 µM

Give its TGI value. Item: COc1cc(Br)cc2cc(-c3cn4ccsc4n3)c(=O)oc12 > 100 µM

// query TGI value for entry CC(=O)NC(Cc1ccc(O)cc1)C(=O)O (configuration not stated) > 100 µM

Which value of TGI has been reported for O=C(NC(=O)c1ccccc1[N+](=O)[O-])Nc1ccc(Oc2ncc(Br)cn2)c(Cl)c1 in the records? 0.0589 µM

Returns the measured TGI for the input compound. Input: c1csc(-c2ccc(-c3cccc4nsnc34)s2)c1 > 100 µM

Recorded TGI for N#Cc1c(N2CCCC2)ncn(-c2ccccc2)c1=O , please? > 100 µM

Please look up its TGI: C#CCNC(CS)C(=O)O (configuration not stated) > 100 µM

Reported TGI, compound COc1cccc(C(=O)O[C@H]2[C@@H]3[C@]4(OC(C)=O)CO[C@@H]4C[C@H](O)[C@@]3(C)C(=O)[C@H](OC(C)=O)C3=C(C)[C@@H](OC(=O)[C@H](O)[C@@H](NC(=O)OC(C)(C)C)c4ccco4)C[C@]2(O)C3(C)C)c1 : ____ > 18.3 µM

State the recorded TGI for this entry: COc1cc2nc3n(c(=O)c2cc1OC)-c1ccc([N+](=O)[O-])cc1C3=O > 100 µM

Recorded TGI of COc1cc(C2c3cc4c(cc3OC(N3CCOCC3)C2C)OCO4)ccc1O (configuration not stated) , please. 52.2 µM

Reported TGI, compound S=C1Nc2ccccc2SC1c1ccccc1 (configuration not stated) : ____ > 100 µM

# get_value(readout='TGI', item= Nn1c(-c2ccccc2)nn(C(=O)c2ccccc2)c1=O ) > 100 µM

Need TGI of CC1(C)N=[N+]([O-])C1(C)C , thanks. > 100 µM

Which measured TGI value corresponds to O=C1c2ccccc2-c2c1c1ccccc1c(=O)n2CCNCCNCCNCCn1c2c(c3ccccc3c1=O)C(=O)c1ccccc1-2 ? > 54.9 µM

Which TGI reading was recorded for the compound N#CCCC1C(C#N)C2(Cl)CC1(Cl)C(Cl)=C2Cl (configuration not stated) ? > 10 µM

GET /values?readout=TGI&item= CCCCCCCCCCCCCCNC(=O)CCC(NC(=O)c1ccc(N(C)Cc2cnc3nc(N)nc(N)c3n2)cc1)C(=O)NCCCCCCCCCCCCCC (configuration not stated) > 100 µM

What TGI value was documented for this compound, COC(=O)/C=C1\S/C(=N\NC(=O)c2cc3ccc2/C=C\c2ccc(cc2)/C=C\3)N(c2ccccc2)C1=O ? 10.6 µM

For O=C1CCCSC(=O)N1Cc1ccccc1 , what is its reported TGI? > 100 µM

Give the measured TGI of O=c1[nH]c(Nc2cccc(CC(F)(F)F)c2)nc2nc[nH]c12 . > 100 µM

Looking for the measured TGI of COc1ccc(COCCOCc2nc(C#N)c(N)o2)cc1 , can you help? > 100 µM

Return reported TGI; argument: CN1CCN(C2=NCCO2)CC1 > 100 µM

Data request, read-out TGI, for COc1cccc(C2c3cc4c(cc3OC(C)(N3CCCC3)C2C)OCO4)c1O (configuration not stated) 11.8 µM

TGI lookup needed for Cc1nc2n(c1/C=C1/C(=O)Nc3cccc(Cl)c31)CCS2 , thanks. > 100 µM

Which value of TGI has been reported for Nc1nc(Cl)cc(NCC2(CO)CC(=O)C2)n1 in the records? > 100 µM

Sample CCOC(=O)C1(C/C=C/CBr)Cc2ccccc2C1=O (configuration not stated) — what was its TGI? 5.02 µM

Query: TGI; subject: COC([CH2][Hg][n]1cnc2c1c(=O)n(C)c(=O)n2C)CN1C(=O)c2ccccc2S1(=O)=O (configuration not stated) > 100 µM

Form field: reported TGI of Cc1ccc(-c2n[nH]c(=O)n2N2C(=O)c3ccccc3C2=O)cc1 > 100 µM

Please report the recorded TGI for Cc1n[nH]c(=O)n1/N=C/c1ccc(Cl)cc1 . > 100 µM

Could you share which TGI value was measured for O=C(Nc1ccc(F)cc1)Nc1ccc(Cl)c([N+](=O)[O-])c1 ? 10.3 µM

Can you look up the measured TGI of O=[N+]([O-])c1ccc2c(c1)/C(=N/N=C1c3ccccc3Cc3ccccc31)c1cc([N+](=O)[O-])cc([N+](=O)[O-])c1-2 for me? 4.91 µM

Requested read-out: TGI. Entry: CC(=O)O[C@@H]1[C@H](C(C)C)[C@@H](OC(C)=O)C/C(C)=C/CC[C@]2(C)O[C@@H]12 > 100 µM

What value of TGI has been recorded for this entry: COc1cnc2c(c1)C(=O)c1c-2n(CCCN2CCOCC2)c(=O)c2cc(F)ccc12 > 100 µM

What does the record list as TGI for Cc1ccc([N+](=O)[O-])cc1NC1=NCCO1 ? > 100 µM

GET /values?readout=TGI&item= O=C1CCCc2cc3c(cc21)CC1(Cc2ccccc2C1)C3 > 100 µM

Please report the recorded TGI for Cc1ccc(CN2CCC(C(=O)Nc3ccc(-c4cc5ccccc5[nH]4)cc3)CC2)o1 . > 100 µM

Which value of TGI has been reported for NC(N)=NS(=O)(=O)c1ccc(Nc2c3ccccc3nc3c(C(=O)NCCO)cccc23)cc1 in the records? > 100 µM
